Reference source: the Human Domainome abundance scans (Beltran et al. 2025)

B1: Kinesin-like protein KIF16B, residues 1213 to 1273; numbered along this chain, Q96L93 (parent)
chain: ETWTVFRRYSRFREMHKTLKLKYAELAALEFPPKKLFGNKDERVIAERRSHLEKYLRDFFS

- Variants of: B1
- ASSAY_SUMMARY: abundance fitness (aPCA) (normalised: wild type 0, dead -1); higher = more abundant; growth selection in yeast, the domain comes from the species named
- ASSAY_CONTEXT: Homo sapiens
Each entry gets label 0 if its abundance fitness stays under -0.09, and label 1 if its abundance fitness is -0.09 or above.

Given "A24Q" , state whether its abundance fitness is at least -0.09.
label 0

// inclusive: abundance fitness at least -0.09? input: "E14P"
label 0

API: above_or_equal(metric=abundance fitness, cutoff=-0.09) for item "Y55K"
label 1

Further cases:
hey, is abundance fitness for this one >= -0.09? "S10Y"
label 0

Textbook exercise: given the entry "L29C" , state whether its abundance fitness is greater than or equal to -0.09.
label 0

Decide: is the reported value of abundance fitness for "K20C" equal to or greater than -0.09?
label 0

Would you say "L19V" shows abundance fitness at minimum -0.09?
label 0

Check this variant for abundance fitness at or above -0.09: "M15G"
label 0

Is it the case that "F6S" has abundance fitness reaching or exceeding -0.09?
label 0

Please tell me: is the variant "A28K" at or over -0.09 in terms of abundance fitness?
label 0

Quick check, abundance fitness >= -0.09? "V5A"
label 1

Has "M15L" a recorded abundance fitness greater than or equal to -0.09?
label 1

Please indicate if the recorded abundance fitness for "T4W" meets or exceeds -0.09.
label 1

Is reported abundance fitness greater than or equal to -0.09 here: "E14V"
label 0

Quick check, abundance fitness >= -0.09? "R43A"
label 1

Given the entry "E42K" , answer whether its abundance fitness meets or surpasses -0.09.
label 1

For this variant, is measured abundance fitness -0.09 or higher? "K22W"
label 1
